target: T1, human PD-L1 (full-length, expressed on CHO cells) (human, UniProt Q9NZQ7 19-290); experiment: flow cytometry, MFI on CHO/huPD-L1 cells over MFI on Jurkat (CD28) cells, 33.3 nM
T1 construct: also called huPD-L1; CD274
T1 sequence (Q9NZQ7 19-290): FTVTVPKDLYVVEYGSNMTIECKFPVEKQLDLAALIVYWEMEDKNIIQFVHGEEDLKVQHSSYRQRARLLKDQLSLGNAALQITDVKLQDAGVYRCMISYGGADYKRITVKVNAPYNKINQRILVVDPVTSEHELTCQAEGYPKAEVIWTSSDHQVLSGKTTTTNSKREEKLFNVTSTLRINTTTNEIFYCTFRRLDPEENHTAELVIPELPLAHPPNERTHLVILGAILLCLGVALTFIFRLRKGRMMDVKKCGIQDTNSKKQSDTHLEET
value type: Ratio of PDL1:CD28 (ratio)

Look over these answered cases.
binder	measurement units	recorded result
variant CD80 IgV-Fc A26E/Q33R/E35D/M47L/L85Q/K86E (Fc fusion, not shown: a dimerising Fc or GST, Fc fusions are described in general as dimers) VIHVTKEVKEVATLSCGHNVSVEELEQTRIYWRKDKKMVLTMMSGDLNIWPEYKNRTIFDITNNLSIVILALRPSDEGTYECVVQEYEKDAFKREHLAEVTLSVKAD	ratio	276
variant CD80 IgV-Fc H18Y/A26E/Q33L/E35D/M47L/L85Q (Fc fusion, not shown: a dimerising Fc or GST) VIHVTKEVKEVATLSCGYNVSVEELEQTRIYWLKDKKMVLTMMSGDLNIWPEYKNRTIFDITNNLSIVILALRPSDEGTYECVVQKYEKDAFKREHLAEVTLSVKAD	ratio	282
variant CD80 IgV-Fc A26E/E35D/M43T/M47L/L85Q/R94Q (Fc fusion, not shown: a dimerising Fc or GST) VIHVTKEVKEVATLSCGHNVSVEELEQTRIYWQKDKKMVLTMTSGDLNIWPEYKNRTIFDITNNLSIVILALRPSDEGTYECVVQKYEKDAFKQEHLAEVTLSVKAD	ratio	262
variant CD80 IgV-Fc Q27H/Q33L/E35D/M47V/N55D/L85Q/K89N (Fc fusion, not shown: a dimerising Fc or GST) VIHVTKEVKEVATLSCGHNVSVEELAHTRIYWLKDKKMVLTMMSGDVNIWPEYKDRTIFDITNNLSIVILALRPSDEGTYECVVQKYENDAFKREHLAEVTLSVKAD	ratio	55

(A) variant CD80 IgV-Fc Q33L/E35D/T41S/M47V (Fc fusion, not shown: a dimerising Fc or GST) VIHVTKEVKEVATLSCGHNVSVEELAQTRIYWLKDKKMVLSMMSGDVNIWPEYKNRTIFDITNNLSIVILALRPSDEGTYECVVLKYEKDAFKREHLAEVTLSVKAD
(B) variant CD80 IgV-Fc A26E/Q33R/E35D/M47L/L85Q (Fc fusion, not shown: a dimerising Fc or GST) VIHVTKEVKEVATLSCGHNVSVEELEQTRIYWRKDKKMVLTMMSGDLNIWPEYKNRTIFDITNNLSIVILALRPSDEGTYECVVQKYEKDAFKREHLAEVTLSVKAD
(C) variant CD80 IgV-Fc E35D/M47L/L85Q (Fc fusion, not shown: a dimerising Fc or GST) VIHVTKEVKEVATLSCGHNVSVEELAQTRIYWQKDKKMVLTMMSGDLNIWPEYKNRTIFDITNNLSIVILALRPSDEGTYECVVQKYEKDAFKREHLAEVTLSVKAD
Problem: Order the entries by their reported Ratio of PDL1:CD28, beginning at the minimum. Returns: the labels listed in the requested order.
Result: C, A, B
(C: 51 ratio, A: 153 ratio, B: 309 ratio)
